- method-notes: Pharmacokinetic profile, LC-MS of peptide concentration in plasma
- Format: in vivo, mice
- setup-conditions: mouse, in vivo, sc, 5 mg/kg; administered subcutaneously into mice; read-out: half-life (T1/2) (converted)
Where a SMILES comes first, the peptide text is derived from it. Bridges are numbered along the chain shown (N, C = ends). [ ]: non-standard residue; d: D form. The star is where a group is joined. Stearoyl = CCCCCCCCCCCCCCCCCC(=O)*; Dab = NCC[C@H](N)C(=O)O
quantity-kind: half-life

half-life in this record for CCCCCCCCCCCCCCCCCC(=O)N[C@@H](CCCNC(=N)N)C(=O)N[C@@H](CCCNC(=N)N)C(=O)N[C@@H](Cc1c[nH]cn1)C(=O)N[C@@H](CO)C(=O)N[C@@H]1CCCCNC(=O)[C@H](CC(=O)O)NC(=O)[C@@H]2CCCN2C(=O)[C@H](CCN)NC(=O)[C@H]2CCCN2C1=O [pCAP-724, str-RRHSkp(Dab)PD-Cyc] (Stearoyl-RRHS[dK][dP][Dab]PD; lactam 5-C) : ~600 min
